tested on: OVCAR-4 ovarian; assay: NCI-60 one-dose screen, 48 h (100 = growth as untreated, 0 = no growth, -100 = all killed); conditions: 10 µM
The panel holds about 83,000 compounds, 20% with a hit somewhere; the sample as a whole holds those more often.
Listed here: items and their measured growth.
Report the figure in % without appending any unit label.

COc1ccc2c(c1)/C(=C/c1cc(OC)c(OC)c(OC)c1)C(=O)N2C: 47.3
CC(C)(C)c1ccc(OCCCCCCN2CCNCC2)cc1: 72
Cn1c([N+](=O)[O-])cnc1/C=C1\Oc2ccc(Br)cc2C1=O: 3.03
CCCCCN(CCCCC)C(C)C(O)c1ccc2cc(Cl)c3ccccc3c2c1 (centres undefined): 105
CC1(C)CC(OCCCC[P+](c2ccccc2)(c2ccccc2)c2ccccc2)CC(C)(C)N1O: 21.5
c1ccc(CC(NCCNC(Cc2ccccc2)c2ccccc2)c2ccccc2)cc1 (centres undefined): 35.6

Ask: Name the reported growth value associated with the compound COc1ccc(-c2nc(-c3ccccc3)c(-c3ccccc3)[nH]2)cc1OC1CCCC1
Result: 81.6

Ask: Reported growth for O=NN(CCCl)C(=O)NCc1ccc(-c2ccc(CNC(=O)N(CCCl)N=O)cc2)cc1 : what is it?
Result: 114

Ask: I'd like to know its growth. The compound in question is COc1ccccc1Cn1cc2c(c1-c1ccccc1)CCc1cnoc1-2
Result: 61.4
